ASSAY_SYSTEM: NMDA receptor-ion channel complex (Rattus norvegicus, UniProt P35439)
Construct: other: in the presence of 25 μM of B6B21; other: agonist alone
Sequence (Q00959 23-1464, other chains not shown): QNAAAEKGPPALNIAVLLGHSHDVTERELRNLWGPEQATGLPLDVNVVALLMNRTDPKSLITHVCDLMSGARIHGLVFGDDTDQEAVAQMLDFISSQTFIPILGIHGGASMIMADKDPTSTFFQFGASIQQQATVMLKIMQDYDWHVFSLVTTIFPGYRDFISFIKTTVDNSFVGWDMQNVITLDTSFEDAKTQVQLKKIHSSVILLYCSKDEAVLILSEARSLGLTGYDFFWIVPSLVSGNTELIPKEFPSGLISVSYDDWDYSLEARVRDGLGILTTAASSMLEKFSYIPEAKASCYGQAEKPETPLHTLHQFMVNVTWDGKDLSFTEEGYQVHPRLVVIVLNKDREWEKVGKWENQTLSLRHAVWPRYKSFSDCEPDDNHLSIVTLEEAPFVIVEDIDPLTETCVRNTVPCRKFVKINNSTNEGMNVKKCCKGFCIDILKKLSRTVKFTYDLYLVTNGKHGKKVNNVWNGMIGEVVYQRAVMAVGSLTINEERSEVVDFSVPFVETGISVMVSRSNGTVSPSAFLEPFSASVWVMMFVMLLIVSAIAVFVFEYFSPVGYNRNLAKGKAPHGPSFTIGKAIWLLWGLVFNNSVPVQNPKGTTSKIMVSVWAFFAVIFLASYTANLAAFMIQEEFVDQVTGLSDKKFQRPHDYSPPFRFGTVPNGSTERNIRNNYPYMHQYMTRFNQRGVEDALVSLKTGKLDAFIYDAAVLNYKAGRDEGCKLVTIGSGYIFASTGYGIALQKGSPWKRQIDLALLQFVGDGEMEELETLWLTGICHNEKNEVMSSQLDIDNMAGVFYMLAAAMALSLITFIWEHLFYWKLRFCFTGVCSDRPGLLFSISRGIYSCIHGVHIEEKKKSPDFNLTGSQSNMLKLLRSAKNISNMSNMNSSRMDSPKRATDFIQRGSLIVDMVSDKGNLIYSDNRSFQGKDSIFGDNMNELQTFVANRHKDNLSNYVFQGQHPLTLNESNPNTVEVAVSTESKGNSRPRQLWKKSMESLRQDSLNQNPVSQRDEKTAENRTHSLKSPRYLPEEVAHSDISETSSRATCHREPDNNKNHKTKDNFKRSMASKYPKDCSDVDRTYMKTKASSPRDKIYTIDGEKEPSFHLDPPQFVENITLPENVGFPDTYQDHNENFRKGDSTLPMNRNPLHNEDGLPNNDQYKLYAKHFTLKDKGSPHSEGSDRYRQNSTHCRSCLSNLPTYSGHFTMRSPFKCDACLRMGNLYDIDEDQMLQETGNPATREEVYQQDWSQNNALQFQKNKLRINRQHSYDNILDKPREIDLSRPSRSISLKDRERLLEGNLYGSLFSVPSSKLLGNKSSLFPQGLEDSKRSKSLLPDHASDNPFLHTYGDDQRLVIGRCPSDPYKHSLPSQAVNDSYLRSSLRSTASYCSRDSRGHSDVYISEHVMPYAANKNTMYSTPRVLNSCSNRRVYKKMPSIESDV
Sequence (Q00960 27-1482, other chains not shown, further chain): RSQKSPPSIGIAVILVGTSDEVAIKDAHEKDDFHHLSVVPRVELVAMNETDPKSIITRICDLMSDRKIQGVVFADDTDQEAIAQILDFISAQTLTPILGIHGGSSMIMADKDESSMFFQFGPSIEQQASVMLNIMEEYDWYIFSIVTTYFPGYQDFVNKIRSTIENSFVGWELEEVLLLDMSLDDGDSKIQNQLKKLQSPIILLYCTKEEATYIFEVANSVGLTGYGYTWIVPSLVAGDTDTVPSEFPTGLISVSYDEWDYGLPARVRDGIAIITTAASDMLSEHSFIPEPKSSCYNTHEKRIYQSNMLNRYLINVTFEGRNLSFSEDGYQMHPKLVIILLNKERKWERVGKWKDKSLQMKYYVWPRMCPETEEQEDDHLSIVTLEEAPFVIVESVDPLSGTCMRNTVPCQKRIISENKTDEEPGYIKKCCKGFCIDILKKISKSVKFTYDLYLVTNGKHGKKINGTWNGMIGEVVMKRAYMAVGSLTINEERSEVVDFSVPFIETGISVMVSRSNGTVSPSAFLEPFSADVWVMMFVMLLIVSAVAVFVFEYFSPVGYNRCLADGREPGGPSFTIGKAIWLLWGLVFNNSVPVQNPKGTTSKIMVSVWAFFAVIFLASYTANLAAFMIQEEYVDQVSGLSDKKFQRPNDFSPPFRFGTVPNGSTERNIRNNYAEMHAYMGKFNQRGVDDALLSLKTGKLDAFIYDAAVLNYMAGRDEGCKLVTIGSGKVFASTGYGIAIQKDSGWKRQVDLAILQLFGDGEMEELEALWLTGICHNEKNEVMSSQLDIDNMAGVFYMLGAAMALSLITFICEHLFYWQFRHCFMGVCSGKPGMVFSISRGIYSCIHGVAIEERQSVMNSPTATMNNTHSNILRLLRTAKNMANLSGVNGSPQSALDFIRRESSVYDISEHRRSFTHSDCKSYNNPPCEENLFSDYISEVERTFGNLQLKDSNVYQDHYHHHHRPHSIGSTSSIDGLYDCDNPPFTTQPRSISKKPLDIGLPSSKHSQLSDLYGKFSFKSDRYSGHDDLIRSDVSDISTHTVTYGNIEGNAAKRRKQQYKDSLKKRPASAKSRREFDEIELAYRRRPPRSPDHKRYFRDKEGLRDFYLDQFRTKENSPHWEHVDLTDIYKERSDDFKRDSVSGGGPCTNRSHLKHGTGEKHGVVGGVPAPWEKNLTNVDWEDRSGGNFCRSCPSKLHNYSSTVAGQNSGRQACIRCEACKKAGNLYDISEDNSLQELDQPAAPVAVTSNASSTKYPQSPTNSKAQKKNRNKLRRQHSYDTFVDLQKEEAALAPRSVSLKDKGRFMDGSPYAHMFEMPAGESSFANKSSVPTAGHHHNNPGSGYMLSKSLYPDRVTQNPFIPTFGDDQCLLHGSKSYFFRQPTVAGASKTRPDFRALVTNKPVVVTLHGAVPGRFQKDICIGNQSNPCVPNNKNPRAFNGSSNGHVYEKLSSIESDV
EXPERIMENT_SUMMARY: [3H]TCP binding assay on washed hippocampal membranes
CONDITION_DETAILS: read-out: IC50, inhibition of [3H]TCP binding; in the presence of 50 μM glutamate
pIC50: −log10 of the molar value.

# MOLECULE, pIC50
records = [
    ("N[C@H](CCCP(=O)(O)O)C(=O)O [D-AP5, D-(−)-2-amino-5-phosphonovaleric acid]", "< 4.00"),
]

* * *

ASSAY_SYSTEM: NMDA receptor-ion channel complex
EXPERIMENT_SUMMARY: [3H]TCP binding assay on washed hippocampal membranes
Set-up: species or system rat
CONDITION_DETAILS: in the presence of B6B21 (40 μg/ml); read-out: IC50, inhibition of [3H]TCP binding
pIC50: −log10 of the molar value.

# STRUCTURE_SMILES_STRING, pIC50
rows = [
    ("O=C(O)c1cc(O)c2ccc(Cl)cc2n1", 4.22),
]
